# System: PC-3
# protocol.description: NCI tumour cell line growth inhibition, 48 h
Active and inactive are the calls of the source. No stated cut-off is given here; in the data, active = GI50 up to about 1.1 µM and inactive = higher.
Log the outcome using a class from y = active, n = inactive

Example cases with answers are listed next.
1) Nc1nc(N)c(NC(=O)CCCO)c(=O)[nH]1; n
2) O=C1C=C(NCCc2ccc(O)cc2)C(=O)C=C1NCCc1ccc(O)cc1; n
3) Cc1c(O)oc2ccccc2c1=O; n

Query string: Outcome? "CC1=NN(c2nc(N)nc(CCl)n2)C(C)(C)C1"
Result string: n

Query string: Outcome? CN1C(=O)C23CC4=CC=CC(O)C4N2C(=O)C1(CO)SS3 (stereo not drawn)
Result string: y

Query string: Outcome? "Cc1cc(OCc2nnc3n2N=C(c2cc(F)c(Cl)cc2Cl)/C(=C/c2ccc(-c4ccc(Cl)cc4)o2)S3)ccc1Cl"
Result string: n

Query string: Outcome? CCC(C)C(=O)OC1C(=O)OC2CC3C(C)=CC(=O)C(O)C3(C)C3C4(O)OCC23C1C(C)C4O (stereo not drawn)
Result string: y

Query string: Outcome? "COC(=O)c1ccc(/C=C/C2=CC(=O)C=CC2=O)cc1"
Result string: n

Query string: Outcome? "COc1ccc2cc(Oc3ccc(Cl)cc3)c(=O)oc2c1"
Result string: n

Query string: Outcome? "C[C@@H](NC(=O)Nc1cccc(C(=O)Nc2cc(C(C)(C)C)ccc2C(=O)O)n1)c1ccccc1"
Result string: n

Query string: Outcome? Sc1ncnc2nc[nH]c12 [MERCAPTOPURINE ANHYDROUS]
Result string: n

Query string: Outcome? C=C1[C@@H](OC(C)=O)/C=C/C2C3C(=O)[C@@](C)(OC(C)=O)[C@H]([C@H](OC(C)=O)[C@]4(O)[C@@H](C)C(=O)O[C@H]4[C@H]1Cl)[C@@]23C (stereo partly drawn)
Result string: n

Query string: Outcome? "c1ccc(-n2nc3ccc4nonc4c3n2)cc1"
Result string: n
